Record form. Attribute: Kd. Fill in for each entry.
system.tested: T1, PUF4 RNA-binding domain (Saccharomyces cerevisiae, UniProt P25339 537-888)
T1 sequence: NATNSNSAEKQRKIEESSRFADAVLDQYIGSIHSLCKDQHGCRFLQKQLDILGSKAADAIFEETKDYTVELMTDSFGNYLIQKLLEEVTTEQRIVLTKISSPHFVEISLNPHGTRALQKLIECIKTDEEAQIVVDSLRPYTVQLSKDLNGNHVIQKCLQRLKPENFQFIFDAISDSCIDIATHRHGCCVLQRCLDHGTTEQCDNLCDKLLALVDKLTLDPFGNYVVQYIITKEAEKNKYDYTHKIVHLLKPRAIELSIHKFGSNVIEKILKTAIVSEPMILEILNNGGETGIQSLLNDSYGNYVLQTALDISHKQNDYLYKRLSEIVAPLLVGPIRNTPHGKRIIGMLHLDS
procedure.text: Mg; RNA-MaP; 20 mM Na-HEPES pH 7.4, 30 mM KOAc, 0.75 mM MgCl2, 0.1% Tween-20, 5% glycerol, 0.1 mg/mL BSA, 2 mM DTT; 25 C; 0.0125-409.6 nM protein
setup.conditions: tags: N-His6-TEV cleaved; C-SNAP kept, Cy3B-labelled; label: tethered on chip by stalled RNA polymerase

Some entries whose results are on file:
Per the record, UCUCUUUGUAACUAGUUCUCUU (ssRNA) [Ic_S1_P5E.1_K5.1_C5.1_H5.1_A5.1_[T5A]_[T6C]_[A7T]_F5.1_[T8A]_[T9G]_[A10T]_T5.1] has Kd of 642 nM

Per the record, UCUCUUUGUCUUCUUAUCUCUU (ssRNA) [Ib_S1_P5E.1_K5.1_C5.1_H5.1_[A4C]_A5.1_[A7C]_F5.1_T5.1] has Kd of 1090 nM

Okay, next one:
Per the record, Ib_S4_P3E.1_K3.1_C3.1_H3.1_[A4C]_A3.1_F3.1_[T7C]_T3.1 (ssRNA) RNA: UUUGACAACUGAUCGUUCUUUCUUGUCUACAUUCUUUCUCGAUCAGUUGUCUUU has Kd of > 2300 nM

Each recorded value in this set is attributed to paper PMC9352680.
